# tested system: EP2 (Homo sapiens, UniProt P43116)
# Sequence (P43116 whole entry): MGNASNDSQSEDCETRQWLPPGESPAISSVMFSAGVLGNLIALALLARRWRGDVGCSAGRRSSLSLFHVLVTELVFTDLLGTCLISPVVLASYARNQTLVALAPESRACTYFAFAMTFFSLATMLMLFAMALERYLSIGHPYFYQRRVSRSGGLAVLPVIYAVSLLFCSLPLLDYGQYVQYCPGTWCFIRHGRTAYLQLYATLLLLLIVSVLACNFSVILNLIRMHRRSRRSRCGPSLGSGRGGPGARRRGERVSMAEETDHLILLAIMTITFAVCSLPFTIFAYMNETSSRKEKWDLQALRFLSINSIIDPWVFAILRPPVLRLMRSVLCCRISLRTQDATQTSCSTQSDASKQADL
# assay explanation: EP2 flipr EC50
# Type: cell-based
pEC50: −log10 of the molar value.
quantity kind: pEC50

compound	quantity kind	experimental result
CCCCCC(O)c1ccc(N2C(=O)CC[C@@H]2C/C=C\c2nc(C(=O)O)cs2)cc1 (some centres unmarked)	pEC50	7.77
CCCCC[C@H](O)c1ccc(N2C(=O)CC[C@@H]2/C=C\Cc2ccc(C(=O)O)s2)cc1	pEC50	7.64

* * *

# tested system: hEP3A (Homo sapiens, UniProt P43115)
# Sequence (P43115 whole entry): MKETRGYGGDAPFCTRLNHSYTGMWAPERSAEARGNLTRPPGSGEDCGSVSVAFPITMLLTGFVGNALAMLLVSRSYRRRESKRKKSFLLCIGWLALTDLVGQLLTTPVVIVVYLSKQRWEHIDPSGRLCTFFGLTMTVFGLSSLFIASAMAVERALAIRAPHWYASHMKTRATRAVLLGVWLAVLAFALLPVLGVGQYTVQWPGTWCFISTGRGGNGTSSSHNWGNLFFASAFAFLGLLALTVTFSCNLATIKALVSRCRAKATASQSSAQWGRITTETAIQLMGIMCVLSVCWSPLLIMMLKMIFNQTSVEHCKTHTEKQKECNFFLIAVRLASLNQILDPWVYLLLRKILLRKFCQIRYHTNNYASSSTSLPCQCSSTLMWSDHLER
# assay explanation: Other receptors functional EC50, hEP3A
pEC50: −log10 of the molar value.
quantity kind: pEC50

compound	tested system	experimental result
CCCCC[C@H](O)c1ccc(N2C(=O)CC[C@@H]2C/C=C/c2ccc(C(=O)O)s2)cc1	hEP3A (Homo sapiens, UniProt P43115)	5.68

[P] CCCCCC(O)c1ccc(N2C(=O)CC[C@@H]2C/C=C/c2nc(C(=O)O)cs2)cc1 (stereo partly drawn)
[Q] CCCCCC(O)c1ccc(N2C(=O)CC[C@@H]2C/C=C\c2nc(C(=O)O)cs2)cc1 (stereo partly drawn)
Incoming: Hey, which is lower on measured pEC50, P or Q ? Answer format: the label of the selected item.
Outgoing: P
(P: 5.53, Q: 7.37)

* * *

# tested system: EP2 (Homo sapiens)
# assay explanation: EP2 cAMP EC50
# Assay type: cell-based
pEC50: −log10 of the molar value.
quantity kind: pEC50

Some compounds with recorded pEC50:
compound	pEC50
CCCCC[C@H](O)c1ccc(N2C(=O)CC[C@@H]2/C=C\Cc2ccc(C(=O)O)s2)cc1	7.72
CCCCCC(O)c1ccc(N2C(=O)CC[C@@H]2C/C=C/c2nc(C(=O)O)cs2)cc1 (stereo partly shown)	7.62

[A] CCCCC[C@H](O)c1ccc(N2C(=O)CC[C@@H]2C/C=C/c2ccc(C(=O)O)s2)cc1
[B] CCCCCC(O)c1ccc(N2C(=O)CC[C@@H]2C/C=C\c2nc(C(=O)O)cs2)cc1 (stereo partly shown)
Incoming: Between the two listed entries A and B , which has its pEC50 at the higher number? Write down the label attached to your selection.
Outgoing: B

* * *

# tested system: hTP (Homo sapiens, UniProt P21731)
# Sequence (P21731 1-343): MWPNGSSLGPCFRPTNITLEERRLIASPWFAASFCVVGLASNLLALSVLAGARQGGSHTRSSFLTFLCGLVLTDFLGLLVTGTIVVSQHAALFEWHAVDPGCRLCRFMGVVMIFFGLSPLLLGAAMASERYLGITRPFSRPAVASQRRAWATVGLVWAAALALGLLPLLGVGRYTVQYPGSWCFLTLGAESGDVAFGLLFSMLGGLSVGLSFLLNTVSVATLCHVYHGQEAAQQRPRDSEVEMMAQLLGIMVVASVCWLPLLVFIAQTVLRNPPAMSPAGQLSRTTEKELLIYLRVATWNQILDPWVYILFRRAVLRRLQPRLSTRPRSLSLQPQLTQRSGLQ
# assay explanation: Other receptors functional EC50, hTP
pEC50: −log10 of the molar value.
quantity kind: pEC50

Incoming: Dear colleague, I am looking for the recorded pEC50 of the following compound: CCCCCC(O)c1ccc(N2C(=O)CC[C@@H]2C/C=C/c2nc(C(=O)O)cs2)cc1 (stereo partly shown)
Outgoing: < 5.00

* * *

# tested system: hDP (Homo sapiens)
# Sequence (Q13258 1-359): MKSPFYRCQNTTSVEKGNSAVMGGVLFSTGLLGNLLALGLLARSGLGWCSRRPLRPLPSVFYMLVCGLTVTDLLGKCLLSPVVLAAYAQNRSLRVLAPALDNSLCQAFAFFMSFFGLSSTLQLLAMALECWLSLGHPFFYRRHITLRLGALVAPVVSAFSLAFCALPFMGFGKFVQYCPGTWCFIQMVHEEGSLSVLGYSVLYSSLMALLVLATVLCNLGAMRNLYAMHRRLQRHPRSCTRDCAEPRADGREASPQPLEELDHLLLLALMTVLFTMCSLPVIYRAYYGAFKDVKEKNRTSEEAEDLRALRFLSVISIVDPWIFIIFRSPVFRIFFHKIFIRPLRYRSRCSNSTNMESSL
# assay explanation: Other receptors functional EC50, hDP
quantity kind: EC50

compound	experimental result
CCCCCC(O)c1ccc(N2C(=O)CC[C@@H]2C/C=C/c2nc(C(=O)O)cs2)cc1 (stereo partly shown)	> 10 µM
CCCCC[C@H](O)c1ccc(N2C(=O)CC[C@@H]2C/C=C/c2ccc(C(=O)O)s2)cc1	> 10 µM
CCCCCC(O)c1ccc(N2C(=O)CC[C@@H]2C/C=C\c2nc(C(=O)O)cs2)cc1 (stereo partly shown)	1.85 µM

Incoming: // EC50 lookup, key: CCCCC[C@H](O)c1ccc(N2C(=O)CC[C@@H]2/C=C\Cc2ccc(C(=O)O)s2)cc1
Outgoing: > 10 µM
